EXPERIMENTAL_PROTOCOL: Metabolic stability in cryopreserved human hepatocytes assessed as intrinsic clearance measured per 10^6 cells at 1 uM after 120 mins by LC-MS/MS analysis
Format: ADME, cell-based, Hepatocyte
MEASUREMENT_CONDITIONS: cryopreserved hepatocytes, read-out: CLH
Mark rule met for hepatocyte CLint at 1 µM under 9 µL/min/1e6 cells, rule not met if at or over.

Answered examples (3):
| MOLECULE | CATEGORY |
| --- | --- |
| COc1cc(F)c(O[C@H]2CC[C@@H](C(=O)O)CC2)cc1C(=O)N[C@@H]1[C@H]2CC[C@H](C2)[C@@H]1C(=O)Nc1ccccc1 | rule met |
| COc1cc(F)c(-c2ccc(C(=O)O)cc2)cc1C(=O)N[C@@H]1[C@H]2CC[C@H](C2)[C@@H]1C(=O)Nc1cccc(S(=O)(=O)C(F)(F)F)c1 | rule not met |
| COc1cc(F)c(O[C@H]2CC[C@@H](C(=O)O)CC2)cc1C(=O)N[C@@H]1[C@H](C(=O)Nc2ccc(F)c(C(F)(F)F)c2)[C@H]2C=C[C@@H]1C2 | rule met |

Request: Is hepatocyte CLint at 1 µM of CC(C)Oc1ccccc1C(=O)Nc1ccccc1C(=O)Nc1cccc(S(=O)(=O)C(F)(F)F)c1 strictly below 9 µL/min/1e6 cells?
Response: rule not met

Request: I wonder whether COc1cc(F)c(O[C@H]2CC[C@@H](C(=O)O)CC2)cc1C(=O)N[C@H]1[C@@H](C(=O)Nc2ccc(F)c(S(=O)(=O)C(F)(F)F)c2)[C@@H]2C=C[C@H]1C2 has hepatocyte CLint at 1 µM below 9 µL/min/1e6 cells. Can you tell?
Response: rule met

Request: Field: below-cutoff. Rule: recorded hepatocyte CLint at 1 µM strictly less than 9 µL/min/1e6 cells. Subject: COc1cc(F)c(O[C@H]2CC[C@@](C)(C(=O)O)CC2)cc1C(=O)N[C@@H]1[C@H]2CC[C@H](C2)[C@@H]1C(=O)Nc1cccc(S(=O)(=O)C(F)(F)F)c1
Response: rule not met

Request: Item COc1cc(F)c(OCCCCC(=O)O)cc1C(=O)N[C@H]1[C@@H](C(=O)Nc2cccc(S(=O)(=O)C(F)(F)F)c2)[C@@H]2C=C[C@H]1C2 (racemic) : hepatocyte CLint at 1 µM beneath 9 µL/min/1e6 cells, strictly?
Response: rule not met

Request: Consider COc1cc(F)c(O[C@H]2CC[C@@](C)(C(=O)O)CC2)cc1C(=O)N[C@@H]1CCC[C@@H]1C(=O)Nc1ccc(F)c(S(F)(F)(F)(F)F)c1 . Does its hepatocyte CLint at 1 µM lie strictly below 9 µL/min/1e6 cells?
Response: rule not met

Request: Strictly below 9 µL/min/1e6 cells in hepatocyte CLint at 1 µM? COc1cc(F)c(-c2ccc(C(=O)O)cc2)cc1C(=O)Nc1ccccc1C(=O)Nc1cccc(S(=O)(=O)C(F)(F)F)c1
Response: rule not met

Request: is_below(hepatocyte CLint at 1 µM, 9 µL/min/1e6 cells) for COc1cc(F)c(O[C@H]2CC[C@@H](C(=O)O)CC2)cc1C(=O)N[C@@H]1[C@H]2CC[C@H](C2)[C@@H]1C(=O)Nc1cccc(S(=O)(=O)C(F)(F)F)c1 ?
Response: rule not met

Request: Please determine if COc1cc(F)c(O[C@H]2CC[C@](C)(C(=O)O)CC2)cc1C(=O)N[C@@H]1[C@H]2CC[C@H](C2)[C@@H]1C(=O)Nc1cccc(S(=O)(=O)C(F)(F)F)c1 is below 9 µL/min/1e6 cells in terms of hepatocyte CLint at 1 µM.
Response: rule not met

Request: Please check: hepatocyte CLint at 1 µM for COc1cc(F)c(-c2ccc(CC(=O)O)cc2)cc1C(=O)N[C@H]1[C@@H](C(=O)Nc2cccc(S(=O)(=O)C(F)(F)F)c2)[C@@H]2C=C[C@H]1C2 (racemic) , strictly under 9 µL/min/1e6 cells or not?
Response: rule met

Request: Dear reviewer, please state whether COc1cc(F)c(O[C@H]2CC[C@@](C)(C(=O)O)CC2)cc1C(=O)N[C@@H]1C[C@@H](OC)C[C@@H]1C(=O)Nc1cccc(S(=O)(=O)C(F)(F)F)c1 has hepatocyte CLint at 1 µM strictly beneath 9 µL/min/1e6 cells.
Response: rule met

Request: API: query returns whether the molecule falls strictly under 9 µL/min/1e6 cells in hepatocyte CLint at 1 µM. Query: COc1cc(F)c(-c2ccc(C(=O)O)cc2)cc1C(=O)N[C@H]1[C@@H](C(=O)Nc2cccc(S(=O)(=O)C(F)(F)F)c2)[C@@H]2C=C[C@H]1C2
Response: rule not met

Request: is_below(hepatocyte CLint at 1 µM, 9 µL/min/1e6 cells) for COc1cc(F)c(O[C@H]2CC[C@@H](C(=O)O)CC2)cc1C(=O)N[C@H]1[C@@H](C(=O)Nc2cccc(S(=O)(=O)C(F)(F)F)c2)[C@@H]2C=C[C@H]1C2 ?
Response: rule not met

Request: hepatocyte CLint at 1 µM under 9 µL/min/1e6 cells? Item: COc1cc(F)c(Oc2ccc(C(=O)O)cc2)cc1C(=O)N[C@H]1[C@@H](C(=O)Nc2cccc(S(=O)(=O)C(F)(F)F)c2)[C@@H]2C=C[C@H]1C2 (racemic)
Response: rule met

Request: Criterion: hepatocyte CLint at 1 µM strictly below 9 µL/min/1e6 cells. Is it met by COc1cc(F)c(OCCCC(=O)O)cc1C(=O)N[C@H]1[C@@H](C(=O)Nc2cccc(S(=O)(=O)C(F)(F)F)c2)[C@@H]2C=C[C@H]1C2 (racemic) ?
Response: rule not met

Request: Does the reported hepatocyte CLint at 1 µM of COc1cc(F)c(-c2cccc(C(=O)O)c2)cc1C(=O)N[C@H]1[C@@H](C(=O)Nc2cccc(S(=O)(=O)C(F)(F)F)c2)[C@@H]2C=C[C@H]1C2 stay below 9 µL/min/1e6 cells?
Response: rule met

Request: Hello, I'm reviewing records and need to know if hepatocyte CLint at 1 µM of COc1cc(F)c(O[C@H]2CC[C@@H](C(=O)O)CC2)cc1C(=O)N[C@H]1[C@H](C(=O)Nc2ccc(F)c(C(F)(F)F)c2)[C@@H]2C=C[C@H]1C2 is below 9 µL/min/1e6 cells. Could you check?
Response: rule not met

Request: # TODO verify hepatocyte CLint at 1 µM < 9 µL/min/1e6 cells strictly for this molecule: COc1cc(F)c(O[C@H]2CC[C@H](C(=O)O)CC2)cc1C(=O)N[C@H]1[C@@H](C(=O)Nc2cccc(S(=O)(=O)C(F)(F)F)c2)[C@@H]2C=C[C@H]1C2
Response: rule met

====

EXPERIMENTAL_PROTOCOL: Oral bioavailability in Han Wistar rat at 2.0 micromol/kg by LC-MS/MS analysis
Type: ADME, organism-based
MEASUREMENT_CONDITIONS: in vivo, 2 µmol/kg
OBSERVATION_TYPE: bioavailability (%)
Supply the numeric figure in %, leaving out any unit text.

Request: Can you look up the measured bioavailability of CC(C)Oc1ccccc1C(=O)Nc1ccccc1C(=O)Nc1cccc(S(=O)(=O)C(F)(F)F)c1 for me?
Response: 40

====

# maps each entry to its logD at 3 h
EXPERIMENTAL_PROTOCOL: Lipophilicity, logD of the compound in 1-octanol and phosphate buffer at pH 7.4 incubated for 3 hrs by shake flask method based LC/MS/MS analysis
Type: physicochemical
MEASUREMENT_CONDITIONS: 1-octanol/phosphate buffer, pH 7.4
Just the number, please, no unit after it.

Before answering, review these 8 worked examples.
| COMPOUND | EXPERIMENTAL_VALUE |
| --- | --- |
| COc1ccccc1C(=O)N[C@H]1CN(C)C[C@H]1C(=O)Nc1cccc(S(=O)(=O)C(F)(F)F)c1 (racemic) | 3.5 |
| COc1cc(F)c(O[C@H]2CC[C@@H](C(=O)O)CC2)cc1C(=O)N[C@H]1[C@@H](C(=O)Nc2ccc(F)c(C(F)(F)F)c2)[C@@H]2C=C[C@H]1C2 | 3.55 |
| COc1ccc(-c2cccnc2)cc1C(=O)N[C@@H]1[C@H](C(=O)Nc2cccc(S(=O)(=O)C(F)(F)F)c2)[C@H]2C=C[C@@H]1C2 (racemic) | 4.7 |
| COc1cc(F)c(O[C@H]2CC[C@@](C)(C(=O)O)CC2)cc1C(=O)N[C@@H]1[C@H]2CC[C@H](C2)[C@@H]1C(=O)Nc1cccc(S(=O)(=O)C(F)(F)F)c1 | 4.15 |
| COc1ccccc1C(=O)N[C@H]1[C@@H](C(=O)Nc2cccc(S(=O)(=O)C(F)(F)F)c2)[C@@H]2C=C[C@H]1C2 | 4.4 |
| COc1ccccc1C(=O)N[C@@H]1[C@H](C(=O)Nc2cccc(S(=O)(=O)C(F)(F)F)c2)[C@H]2C=C[C@@H]1C2 (racemic) | 4.9 |
| COc1cc(F)c(C(=O)N2CCC(C)(C(=O)O)CC2)cc1C(=O)N[C@H]1[C@@H](C(=O)Nc2cccc(S(=O)(=O)C(F)(F)F)c2)[C@@H]2C=C[C@H]1C2 (racemic) | 1.9 |
| COc1cc(F)c(O[C@H]2CC[C@](C)(C(=O)O)CC2)cc1C(=O)N[C@@H]1[C@H]2CC[C@H](C2)[C@@H]1C(=O)Nc1cccc(S(=O)(=O)C(F)(F)F)c1 | 4.2 |

Continue with the next compound.
Request: Query (compound): COc1cc(F)c(Oc2ccc(C(=O)O)cc2)cc1C(=O)N[C@H]1[C@@H](C(=O)Nc2cccc(S(=O)(=O)C(F)(F)F)c2)[C@@H]2C=C[C@H]1C2 (racemic) ; field requested: logD at 3 h
Response: 3.6

These entries and their values trace back to ChEMBL document CHEMBL5518235.
